Molecular target: T1, hFZD8 CRD-Fc (human, UniProt Q9H461 28-158, limits assumed)
T1 construct: domain: CRD; bought (R&D Systems); not shown: Fc part
T1 sequence (looked up): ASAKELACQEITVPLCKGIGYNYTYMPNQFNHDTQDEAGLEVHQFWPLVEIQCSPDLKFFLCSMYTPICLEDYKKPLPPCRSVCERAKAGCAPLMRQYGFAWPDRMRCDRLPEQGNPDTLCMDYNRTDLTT
Assay: spot phage ELISA
RECORDED_METRIC: signal:noise ratio

Examples from the recorded data:
FWFDFWFG [SEQ ID NO 31]; 0.8
NPPPECFLSK [SEQ ID NO 27]; 1.1
PPNVHEGCWSMFPW [SEQ ID NO 12]; 1.3

Next, consider the following binder.
[ask] Which signal:noise ratio value is on record for ASELHDWCRMMFPW [SEQ ID NO 10] ?
[reply] 1.3
